Values from PubChem BioAssay (EPA / NIEHS)

# assayed.system: Heat shock factor protein 1 (Homo sapiens) (UniProt Q00613)
# Sequence (Q00613 whole entry, looked up): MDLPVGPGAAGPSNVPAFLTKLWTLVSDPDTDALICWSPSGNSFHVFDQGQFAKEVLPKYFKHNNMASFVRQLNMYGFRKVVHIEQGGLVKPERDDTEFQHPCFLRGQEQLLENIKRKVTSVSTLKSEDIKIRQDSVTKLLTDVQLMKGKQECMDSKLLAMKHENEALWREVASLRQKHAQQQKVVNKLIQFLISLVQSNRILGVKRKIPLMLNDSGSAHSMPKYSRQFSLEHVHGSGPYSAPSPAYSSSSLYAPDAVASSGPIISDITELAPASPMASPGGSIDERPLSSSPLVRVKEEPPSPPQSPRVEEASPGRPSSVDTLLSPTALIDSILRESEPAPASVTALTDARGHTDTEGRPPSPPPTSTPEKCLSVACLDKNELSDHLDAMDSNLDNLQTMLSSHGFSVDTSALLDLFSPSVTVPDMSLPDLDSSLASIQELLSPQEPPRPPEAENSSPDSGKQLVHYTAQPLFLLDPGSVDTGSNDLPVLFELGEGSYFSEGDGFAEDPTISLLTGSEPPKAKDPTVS
# measurement.protocol: ATG_HSE_CIS: Attagene CIS-FACTORIAL HepG2 Assay for human Heat Shock Transcription Factor 1 (HSE) (AID 2282953)
# experimental.context: HepG2 HSE cis-reporter, Attagene RNA transcription; actives raise or lower the signal
Activity calls are given as the source filed them. The calls were made as follows: active = hit-call score of the fitted dose curve at least 0.9, where 1 is the maximum; inactive = score below 0.9.
Thanks in advance; please answer with one of these: true (1) = active, false (0) = inactive

input: Hey, what did the test say about C[C@@H](Oc1ccc(CNC(=O)c2cccnc2Oc2ccc3c(c2)OCO3)c(F)c1)C(=O)O ?
output: false (0)

input: Record: O=C(O)c1ccc2c(c1)nc(C(=O)NC1CCN(C3CC3)CC1)n2Cc1cc(-c2ccc(Cl)s2)on1
output: false (0)

input: Record: OC(O)(C(F)C(O)(O)C(F)(F)F)C(F)(F)F
output: false (0)

input: Record: Cc1ncc([C@@H](CCCCCCc2ccc3c(n2)NCCC3)CC(=O)O)cn1
output: false (0)

input: Record: COCc1nnc(-c2ccc[n+]([O-])c2)n1-c1c(Cl)c(Cl)cc2[nH]c(=O)c(=O)[nH]c12
output: false (0)

input: Record: NC(=O)N1c2ccccc2C=Cc2ccccc21
output: false (0)

input: Record: O=C(N[C@H](CO)[C@H](O)c1ccc([N+](=O)[O-])cc1)C(Cl)Cl
output: false (0)

input: Record: c1ccc2c(c1)-c1cccc3c1c-2cc1ccccc13
output: false (0)

input: Record: OCCOCCOCCO
output: false (0)

input: Record: CCCCCCOC(=O)CC(CC(=O)OCCCCCC)(OC(=O)CCC)C(=O)OCCCCCC
output: false (0)

input: Record: FC(F)(F)COC(OCC(F)(F)F)OCC(F)(F)F
output: false (0)

input: Record: S=P(N1CC1)(N1CC1)N1CC1
output: false (0)

input: Record: O=C(O)c1cccc(C(=O)O)c1
output: false (0)

input: Record: c1ccc2ncccc2c1
output: false (0)

input: Record: CCCCCOC(C)=O
output: false (0)

input: Record: NC(=O)N(O)[C@@H]1COc2cc(OCc3ccccc3)ccc21
output: false (0)

input: Record: CC[C@H](C)C(=O)O[C@H]1C[C@H](O)C=C2C=C[C@H](C)[C@H](CC[C@@H](O)C[C@@H](O)CC(=O)O)[C@H]21
output: false (0)

input: Record: NNC(=O)c1ccncc1
output: false (0)

input: Record: NC(N)=O
output: false (0)

input: Record: CCn1nc(C)c2c1C(=O)NCC(c1ccc(O)cc1)=N2
output: false (0)

input: Record: OCCNCCO
output: false (0)

input: Record: CCc1ccc(O)c(C(C)(C)C)c1
output: false (0)

input: Record: OCc1ccccc1
output: false (0)

input: Record: Cc1nc(-c2ccccn2)ncc1C(=O)Nn1cc(C)c2cc(F)ccc21
output: false (0)

input: Record: FC(F)(F)C(F)(F)C(F)(F)C(F)(F)C(F)(F)C(F)(F)I
output: false (0)

input: Record: FC(F)=C(F)C(F)(F)C(F)(F)C(F)(F)C(F)(F)C(F)(F)C(F)(F)F
output: false (0)

input: Record: CCOc1ccc2[nH]cc(C(=O)NCc3ccccc3)c(=O)c2n1
output: false (0)

input: Record: CCCCCCCCCCCCCCO
output: true (1)

input: Record: CCCCC(CC)C(=O)OCCOCCOCCOC(=O)C(CC)CCCC (stereo unspecified)
output: false (0)

input: Record: O=C1CN(N=Cc2ccc([N+](=O)[O-])o2)C(=O)N1
output: false (0)

input: Record: COc1cc(C(C)C)c2c(c1)S(=O)(=O)N(COc1cc(=O)n3cccc(OCCN4CCCCC4)c3n1)C2=O
output: true (1)

input: Record: O=C(Cl)C(F)(F)C(F)(F)C(F)(F)C(=O)Cl
output: false (0)

input: Record: CCOC(N)=O
output: false (0)

input: Record: C[Si](C)(C)C(F)(F)C(F)(F)C(F)(F)F
output: false (0)

input: Record: CC(=O)c1ccccc1
output: false (0)

input: Record: CCCCCCCCCC
output: false (0)

input: Record: CC(C)c1nnc2ccc(-c3ocnc3-c3cc(F)ccc3F)cn12
output: false (0)

input: Record: O=C(NO)C1(NS(=O)(=O)c2ccc(Oc3ccc(F)cc3)cc2)CCOCC1
output: false (0)

input: Record: OCC(CO)(CO)CO
output: false (0)

input: Record: Cn1cc[nH]c1=S
output: false (0)

input: Record: CC(C)CC(C)O (stereo unspecified)
output: false (0)

input: Record: OC[C@H]1O[C@@H]2O[C@H]3[C@H](O)[C@@H](O)[C@@H](O[C@H]4[C@H](O)[C@@H](O)[C@@H](O[C@H]5[C@H](O)[C@@H](O)[C@@H](O[C@H]6[C@H](O)[C@@H](O)[C@@H](O[C@H]7[C@H](O)[C@@H](O)[C@@H](O[C@H]1[C@H](O)[C@H]2O)O[C@@H]7CO)O[C@@H]6CO)O[C@@H]5CO)O[C@@H]4CO)O[C@@H]3CO
output: false (0)

input: Record: CC1(C)C(=O)N(Cl)C(=O)N1Cl
output: false (0)

input: Record: CNC(C)=O
output: false (0)

input: Record: CCc1cccc(CC)c1N
output: false (0)

input: Record: Cc1nccn1-c1ccc(Sc2cccc(C3(C(N)=O)CCOCC3)c2)cc1
output: false (0)
